Recorded inhibition at 100 µM, one value per entry.
- Study target: thromboxane synthetase enzyme (Rattus norvegicus, UniProt P49430)
- Construct: endogenous in cells; host or cells: washed platelets from arterial blood of male Okamoto-Aoki spontaneously hypertensive rats (animals from Taconic Farms, Germantown, N.Y.)
- Sequence (P49430 whole entry): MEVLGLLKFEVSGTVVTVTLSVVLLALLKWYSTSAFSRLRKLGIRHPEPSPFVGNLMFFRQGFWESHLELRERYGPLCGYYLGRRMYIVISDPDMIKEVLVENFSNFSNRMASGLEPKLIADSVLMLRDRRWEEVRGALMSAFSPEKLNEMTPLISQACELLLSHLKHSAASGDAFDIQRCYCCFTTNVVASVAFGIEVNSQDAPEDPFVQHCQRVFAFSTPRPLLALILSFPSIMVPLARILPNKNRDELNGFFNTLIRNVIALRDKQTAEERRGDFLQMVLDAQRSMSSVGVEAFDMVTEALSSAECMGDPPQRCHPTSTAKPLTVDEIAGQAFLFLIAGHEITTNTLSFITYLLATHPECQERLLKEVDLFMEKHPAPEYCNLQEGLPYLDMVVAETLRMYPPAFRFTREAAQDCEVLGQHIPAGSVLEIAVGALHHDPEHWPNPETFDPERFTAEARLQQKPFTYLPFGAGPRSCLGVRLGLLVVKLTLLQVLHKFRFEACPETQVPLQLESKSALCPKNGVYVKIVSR
- Procedure details: Thromboxane synthetase enzyme inhibition (TXB2 formation in washed platelets, RIA)
- Type: cell-based, spontaneously hypertensive rat
- Run parameters: 1×10^-4 Molar; SHR platelets, 10 min at 37° C.; read-out: % Inhibition (Thromboxane Synthetase Enzyme Inhibition)
All answers are understood in %, so give the number only.

Compound	Unit tag	inhibition at 100 µM
Cc1nccn1CCCNC1=Nc2cccc3cccc1c23	%	82

Short answer for CC(CCNC1=Nc2ccc(S(=O)(=O)N(C)C)c3cccc1c23)n1ccnc1 (centres unmarked) : inhibition at 100 µM was 99

Short answer for c1cc2c3c(cccc3c1)C(NCCn1ccnc1)=N2 : inhibition at 100 µM was 71

Short answer for c1cncc(CCNC2=Nc3cccc4cccc2c34)c1 : inhibition at 100 µM was 99

Short answer for CCC(=O)N(CCC(C)n1ccnc1)C1=Nc2cccc3cccc1c23 (centres unmarked) : inhibition at 100 µM was 95

Short answer for CC(=O)N(CCCCn1ccnc1)C1=Nc2cccc3cccc1c23 : inhibition at 100 µM was 98.5

Short answer for Cn1cccc1CCNC1=Nc2cccc3cccc1c23 [fumarate] : inhibition at 100 µM was 90

Short answer for O=C(c1ccccc1)N(CCCn1ccnc1)C1=Nc2cccc3cccc1c23 : inhibition at 100 µM was 94.5

Short answer for CC(CCNC1=Nc2cccc3cccc1c23)c1cccnc1 (centres unmarked) : inhibition at 100 µM was 96

Short answer for CN(C)S(=O)(=O)c1ccc2c3c(cccc13)C(NCCCn1ccnc1)=N2 : inhibition at 100 µM was 100

Short answer for COc1ccccc1C(=O)N(CCCCn1ccnc1)C1=Nc2cccc3cccc1c23 : inhibition at 100 µM was 93

====

- Study target: thromboxane synthetase enzyme (Rattus norvegicus)
- Construct: endogenous in cells; host or cells: washed platelets from arterial blood of male Okamoto-Aoki spontaneously hypertensive rats (animals from Taconic Farms, Germantown, N.Y.)
- Procedure details: Thromboxane synthetase enzyme inhibition (TXB2 formation in washed platelets, RIA)
- Assay type: cell-based, spontaneously hypertensive rat
- Run parameters: 1×10^-4 Molar; SHR platelets, 10 min at 37° C.; read-out: % Inhibition (Thromboxane Synthetase Enzyme Inhibition)
Where a name gives a salt, the structure may show the parent alone.
# if value of inhibition at 100 µM reaches 90%, tag label 1; if it stays below, tag label 0

Use the examples below as a reference point.
Compound	Class assignment
c1ccc(C(CNC2=Nc3cccc4cccc2c34)(Cn2ccnc2)c2ccccc2)cc1	label 0
c1cncc(CNC2=Nc3cccc4cccc2c34)c1 [fumarate]	label 0
Brc1ccc2c3c(cccc13)C(NCCCn1ccnc1)=N2 [dihydrochloride]	label 0
O=C(O)/C=C/C(=O)O.c1cncc(CCCNC2=Nc3cccc4cccc2c34)c1 [fumarate]	label 1
CC(CCNC1=Nc2cccc3cccc1c23)c1ccncc1 (centres unmarked)	label 1
Clc1ccc2c3c(cccc13)C(NCCCCn1ccnc1)=N2.O=C(O)/C=C/C(=O)O [fumarate]	label 1
Brc1ccc2c3c(cccc13)C(NCCCCCn1ccnc1)=N2	label 1
Brc1ccc2c3c(cccc13)C(NCCCCCCCCCCn1ccnc1)=N2	label 1

INPUT: State whether the measured inhibition at 100 µM reaches 90%, counting equality as reaching it, for Clc1ccc2c3c(cccc13)C(NCCCCCn1ccnc1)=N2
OUTPUT: label 1

INPUT: State whether the measured inhibition at 100 µM reaches 90%, counting equality as reaching it, for Brc1ccc2c3c(cccc13)C(NCCCCn1ccnc1)=N2
OUTPUT: label 1

INPUT: State whether the measured inhibition at 100 µM reaches 90%, counting equality as reaching it, for CC(CNC1=Nc2cccc3cccc1c23)Cc1cccnc1.O=C(O)/C=C/C(=O)O (centres unmarked) [fumarate]
OUTPUT: label 1

INPUT: State whether the measured inhibition at 100 µM reaches 90%, counting equality as reaching it, for Clc1cc(Cl)c2cccc3c2c1N=C3NCCCn1ccnc1
OUTPUT: label 1

INPUT: State whether the measured inhibition at 100 µM reaches 90%, counting equality as reaching it, for O=C(O)/C=C/C(=O)O.c1csc(CNC2=Nc3cccc4cccc2c34)c1 [fumarate]
OUTPUT: label 1

INPUT: State whether the measured inhibition at 100 µM reaches 90%, counting equality as reaching it, for c1cc2c3c(cccc3c1)C(NCc1ccncc1)=N2
OUTPUT: label 1

INPUT: State whether the measured inhibition at 100 µM reaches 90%, counting equality as reaching it, for Clc1cc(Cl)c2cccc3c2c1N=C3NCCCCCCCCCCn1ccnc1
OUTPUT: label 1

INPUT: State whether the measured inhibition at 100 µM reaches 90%, counting equality as reaching it, for CC(CCNC1=Nc2cccc3cccc1c23)CCn1ccnc1 (centres unmarked) [dihydrochloride]
OUTPUT: label 1

INPUT: State whether the measured inhibition at 100 µM reaches 90%, counting equality as reaching it, for O=C(O)/C=C/C(=O)O.c1coc(CNC2=Nc3cccc4cccc2c34)c1 [fumarate]
OUTPUT: label 1

INPUT: State whether the measured inhibition at 100 µM reaches 90%, counting equality as reaching it, for Cl.Cl.c1cc2c3c(cccc3c1)C(NCCCCCCCCn1ccnc1)=N2 [dihydrochloride]
OUTPUT: label 1

====

Recorded inhibition at 100 µM, one value per entry.
- Study target: thromboxane synthetase enzyme (Rattus norvegicus)
- Construct: endogenous in cells; host or cells: washed platelets from arterial blood of male Okamoto-Aoki spontaneously hypertensive rats (animals from Taconic Farms, Germantown, N.Y.)
- Procedure details: Thromboxane synthetase enzyme inhibition (TXB2 formation in washed platelets, RIA)
- Type: cell-based, spontaneously hypertensive rat
- Run parameters: 1×10^-4 Molar; SHR platelets, 10 min at 37° C.; read-out: % Inhibition (Thromboxane Synthetase Enzyme Inhibition)
- Protocol: The blood was diluted with 3 ml cold saline and centrifuged at room temperature for 15 min at 468×g. The platelet rich plasma (PRP) was separated. The platelets were isolated by certrifuging the PRP for 10 minutes at 1060×g and washed in 4 ml cold oxygenated Krebs phosphate buffer, pH 7.4. The chilled platelets recovered from centrifuging at 800×g for 10 minutes were resuspended in oxygenated Krebs phosphate buffer and diluted to contain 4.0-6.0×10^4 platelets/micro-liters. […]
Structures can show the parent of a compound that is named as a salt.
All answers are understood in %, so give the number only.

Consider the reported inhibition at 100 µM for these compounds:
Compound	Unit tag	inhibition at 100 µM
N#CCCN(Cc1ccccn1)C1=Nc2cccc3cccc1c23 [dihydrochloride]	%	97
Cc1ccc(S(=O)(=O)Nc2ccc3c4c(cccc24)C(NCCCCn2ccnc2)=N3)cc1 [monoacetate]	%	79
O=C(O)/C=C/C(=O)O.c1cc2c3c(cccc3c1)C(NCCCCCn1ccnc1)=N2 [fumarate]	%	95

Short answer for OC(CNC1=Nc2cccc3cccc1c23)Cn1ccnc1 (centres unmarked) : inhibition at 100 µM was 88

Short answer for c1cc2c3c(cccc3c1)C(NCCCCCCCCCCCCn1ccnc1)=N2 : inhibition at 100 µM was 97

====

Recorded Time (Minutes) Before Induced Arrhythmia, one value per entry.
- Test system: thevetin-induced arrhythmia in guinea pigs
- Procedure details: Thevetin (cardiac glycoside)-induced arrhythmia in guinea pigs
- Type: in vivo, guinea pig
- Run parameters: IV dose 10 mg/kg; saline 22.91±0.5 minutes
All answers are understood in min, so give the number only.

Consider the reported Time (Minutes) Before Induced Arrhythmia for these compounds:
Compound	Study target	Time (Minutes) Before Induced Arrhythmia, min
Clc1ccc2c3c(cccc13)C(NCCCCn1ccnc1)=N2.O=C(O)/C=C/C(=O)O	thevetin-induced arrhythmia in guinea pigs	31.5
CC(CCNC1=Nc2ccc(S(=O)(=O)N(C)C)c3cccc1c23)n1ccnc1 (stereo not shown)	thevetin-induced arrhythmia in guinea pigs	33.6
Cl.Cl.c1cc2c3c(cccc3c1)C(NCCCn1ccnc1)=N2	thevetin-induced arrhythmia in guinea pigs	48.5
c1ccc(C(CNC2=Nc3cccc4cccc2c34)(Cn2ccnc2)c2ccccc2)cc1	thevetin-induced arrhythmia in guinea pigs	41

Short answer for O=C(O)/C=C/C(=O)O.c1cc2c3c(cccc3c1)C(NCCCCn1ccnc1)=N2 : Time (Minutes) Before Induced Arrhythmia was 31

Short answer for C(=C\Cn1ccnc1)/CNC1=Nc2cccc3cccc1c23 : Time (Minutes) Before Induced Arrhythmia was 34.3

Short answer for O=C(O)/C=C/C(=O)O.c1cc2c3c(cccc3c1)C(NCCCCCCCCCCn1ccnc1)=N2 : Time (Minutes) Before Induced Arrhythmia was 34.2

====

Recorded Time (Minutes) Before Induced Arrhythmia, one value per entry.
- Test system: thevetin-induced arrhythmia in guinea pigs
- Procedure details: Thevetin (cardiac glycoside)-induced arrhythmia in guinea pigs
- Type: in vivo, guinea pig
- Run parameters: IV dose 20 mg/kg; saline 22.91±0.5 minutes
- Protocol: Male guinea pigs, weighing 300-500 g each, from Summit View Farms, Belvidere, N.J., were anesthetized by intraperitoneal adminstration of urethan at 1500 mg/kg. The animals were then restrained in a supine position. Electrocardiogram leads were attached to the four limbs and Lead II of the electrocardiogram was monitored. The neck region was exposed and the jugular vein was cannulated. […] The time until the P wave of the electrocardiogram disappeared was determined.
All answers are understood in min, so give the number only.

Consider the reported Time (Minutes) Before Induced Arrhythmia for these molecules:
Molecule	Measured result
CN(C)S(=O)(=O)c1ccc2c3c(cccc13)C(NCCCn1ccnc1)=N2	33.4
CC(CCNC1=Nc2c(Cl)cc(Cl)c3cccc1c23)n1ccnc1 (stereo not drawn)	32
Brc1ccc2c3c(cccc13)C(NCCCCCn1ccnc1)=N2	37
CC(CNC1=Nc2cccc3cccc1c23)Cn1ccnc1.O=C(O)/C=C/C(=O)O (stereo not drawn)	34.5
Clc1cc(Cl)c2cccc3c2c1N=C3NCCCCCn1ccnc1	33.4

Alright, here's another molecule for you.
Entry c1cncc(CCNC2=Nc3cccc4cccc2c34)c1 under thevetin-induced arrhythmia in guinea pigs had Time (Minutes) Before Induced Arrhythmia of 37
